Reported self-splicing fitness (ln) is given for each of the following sequences.
- test-method-notes: self-splicing fitness, log relative to wild type (ln ratio); higher = more splicing; Tetrahymena group I intron in knt gene, E. coli kanamycin selection, DiMSum; sequences stand for … in CUCUCU…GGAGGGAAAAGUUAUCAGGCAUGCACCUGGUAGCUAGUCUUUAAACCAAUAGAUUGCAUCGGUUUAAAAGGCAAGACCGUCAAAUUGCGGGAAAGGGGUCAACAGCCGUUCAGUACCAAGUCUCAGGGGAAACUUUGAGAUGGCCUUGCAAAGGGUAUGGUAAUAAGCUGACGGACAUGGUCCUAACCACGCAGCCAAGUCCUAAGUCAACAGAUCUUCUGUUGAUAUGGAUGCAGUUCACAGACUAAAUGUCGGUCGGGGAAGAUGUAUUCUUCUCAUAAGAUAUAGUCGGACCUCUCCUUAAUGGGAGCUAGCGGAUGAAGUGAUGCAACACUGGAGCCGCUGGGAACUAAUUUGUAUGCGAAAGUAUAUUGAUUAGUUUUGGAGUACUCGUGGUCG;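 also: selection with 25 µg/mL kanamycin versus none on LB agar overnight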
- assay-setup: 37 °C
measured-parameter: self-splicing fitness (ln)

- CUCCAGCAAUAUUACGAAAC: -2.44
- GAGCAGCAAUAUUACGCAGA: -0.954
- UCCAAGCAAUAUUACGCUUU: -2.16
- GGGUAGCAAUAUUACGACUA: 0.878
- GUGAAGCAAUAUUACGCCCG: -0.026
- GUAAAGCAAUAUUACGAUGC: -0.105
- UUAGAGCAAUAUUACGAGUG: -1.53
- CAUGAGCAAUAUUACGGCUG: -0.532
- GGCGAGCAAUAUUACGAAGG: -2.88
- UGAUAGCAAUAUUACGCUGG: -0.645
- GGUGAGCAAUAUUACGAUUA: -0.938
- UGCGAGCAAUAUUACGAUGG: -1.93
- UUACAGCAAUAUUACGGCGA: 0.489
- GGGUAGCAAUAUUACGAUGG: -2.65
- AACCAGCAAUAUUACGGAUC: -1.48
- GUCUAGCAAUAUUACGUAUU: -0.635
